assay.system: human muscarinic M3 receptor (Homo sapiens, UniProt P20309)
Construct: expressed in transfected cells
Sequence (P20309 whole entry): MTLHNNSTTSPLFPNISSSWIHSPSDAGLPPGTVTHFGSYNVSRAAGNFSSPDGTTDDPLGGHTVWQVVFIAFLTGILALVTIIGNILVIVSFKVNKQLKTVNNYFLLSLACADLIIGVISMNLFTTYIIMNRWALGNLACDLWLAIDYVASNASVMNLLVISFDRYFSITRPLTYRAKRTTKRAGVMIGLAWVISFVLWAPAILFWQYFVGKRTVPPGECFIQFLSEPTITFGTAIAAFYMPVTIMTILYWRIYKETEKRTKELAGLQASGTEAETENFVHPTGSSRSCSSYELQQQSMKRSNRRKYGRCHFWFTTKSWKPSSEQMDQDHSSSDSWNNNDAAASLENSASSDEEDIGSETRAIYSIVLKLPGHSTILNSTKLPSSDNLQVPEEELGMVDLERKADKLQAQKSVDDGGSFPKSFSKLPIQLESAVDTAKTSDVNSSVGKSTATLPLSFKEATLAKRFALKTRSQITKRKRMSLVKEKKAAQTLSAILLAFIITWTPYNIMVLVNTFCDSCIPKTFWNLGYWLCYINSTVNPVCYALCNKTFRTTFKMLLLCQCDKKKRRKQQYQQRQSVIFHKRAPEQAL
assay.summary: Alphascreen Surefire phospho-ERK1/2 functional assay, M3
Type: cell-based
test.conditions: CHO cells stably expressing human M3; Emax relative to ACh
reported.property: % Emax cf. ACh (M3)

{"columns": ["compound", "assay.system", "obs.value"],
 "data": [
  ["CCN(C)C(=O)[C@H]1[C@@H]2CN(C3CC4CCC(C3)N4c3nc(C)no3)C[C@@H]21 (single isomer, unassigned; isomer 2) [12-24 Isomer 2]", "human muscarinic M3 receptor (Homo sapiens, UniProt P20309)", "(25) %"],
  ["CCN(CC)C(=O)[C@H]1[C@@H]2CN(C3CC4COCC(C3)N4c3nc(C(F)(F)F)no3)C[C@@H]21 (single isomer, unassigned; isomer 2) [12-23 Isomer 2]", "human muscarinic M3 receptor (Homo sapiens, UniProt P20309)", "(25) %"],
  ["Cc1noc(N2CC3CCC2CC3N2CCC(n3cccn3)CC2)n1 (single isomer, unassigned) [7-1 Isomer 2]", "human muscarinic M3 receptor (Homo sapiens, UniProt P20309)", "(6) %"]
]}

----------
assay.system: human muscarinic M1 receptor (Homo sapiens, UniProt P11229)
Sequence (P11229 1-460): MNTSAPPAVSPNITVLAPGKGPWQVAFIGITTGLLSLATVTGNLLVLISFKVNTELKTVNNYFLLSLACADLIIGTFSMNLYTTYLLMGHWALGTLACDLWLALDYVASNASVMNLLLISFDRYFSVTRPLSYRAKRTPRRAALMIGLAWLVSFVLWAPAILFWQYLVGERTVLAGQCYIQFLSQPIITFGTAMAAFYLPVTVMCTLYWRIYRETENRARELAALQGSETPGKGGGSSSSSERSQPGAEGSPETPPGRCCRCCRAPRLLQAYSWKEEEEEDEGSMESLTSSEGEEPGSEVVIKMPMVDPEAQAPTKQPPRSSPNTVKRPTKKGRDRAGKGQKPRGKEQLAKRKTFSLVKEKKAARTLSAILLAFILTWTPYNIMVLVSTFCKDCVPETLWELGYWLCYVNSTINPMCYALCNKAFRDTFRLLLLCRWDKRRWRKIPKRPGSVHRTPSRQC
assay.summary: Alphascreen Surefire phospho-ERK1/2 functional assay, M1
Assay type: cell-based
test.conditions: CHO cells stably expressing human M1; agonist 5 min, 37° C.; read-out: pEC50 M1 (converted)
So basically: is EC50 under 500 nM? Then Yes. Not under? Then No.

{"columns": ["compound", "cat"],
 "data": [
  ["CCC1NC(=O)OC12CCN(C1CCCN(c3nc(C)no3)CC1)CC2 (single isomer, unassigned) [10-4 Isomer 4]", "No"],
  ["CCOC(=O)[C@H]1[C@@H]2CN(C3CC4(CCN(c5nc(C)no5)C4)C3)C[C@@H]21 (single isomer, unassigned) [2-3 Isomer 2]", "No"],
  ["Cc1noc(N2CCCC(N3CCC(n4cccn4)CC3)CC2)n1 (single isomer, unassigned) [10-1 Isomer 2]", "No"],
  ["Cc1noc(N2CCCC(N3CCC(n4cccn4)CC3)CC2)n1 (single isomer, unassigned) [10-1 Isomer 1]", "No"],
  ["Cc1noc(N2CC3CC(N4CCC5(CC4)CNC(=O)O5)CC2C3)n1 (single isomer, unassigned) [11-3 Isomer 2]", "Yes"]
]}

Exercise: Lab note: confirm whether the reported EC50 for this compound is below 500 nM, equality not counting. compound: CCC1NC(=O)OC12CCN(C1CCCN(c3nc(C)no3)CC1)CC2 (single isomer, unassigned) [10-4 Isomer 2]
Key: Yes

Exercise: Lab note: confirm whether the reported EC50 for this compound is below 500 nM, equality not counting. compound: Cc1noc(N2C3CCCC2CC(N2CCC4(CC2)CNC(=O)C4)C3)n1 (single isomer, unassigned) [8-2 Isomer 1]
Key: Yes

Exercise: Lab note: confirm whether the reported EC50 for this compound is below 500 nM, equality not counting. compound: Cc1noc(N2C3CCC2CC(N2CCC(C(=O)NC4(C)CCC4)CC2)C3)n1 (single isomer, unassigned) [6-5 Isomer 2]
Key: Yes

Exercise: Lab note: confirm whether the reported EC50 for this compound is below 500 nM, equality not counting. compound: Cc1noc(N2C3CCCC2CC(N2CCC4(CC2)CNC(=O)O4)C3)n1 (single isomer, unassigned) [8-3 Isomer 1]
Key: Yes

Exercise: Lab note: confirm whether the reported EC50 for this compound is below 500 nM, equality not counting. compound: Cc1noc(N2C3COCC2CC(N2CCC(n4cccn4)CC2)C3)n1 (single isomer, unassigned) [9-1 Isomer 1]
Key: No

Cited source: patent US10858352B2
